Assay: Cytotoxicity assay (7-AAD viability, flow cytometry)
Type: cell-based, human
Settings: human; normal fibroblasts; ± standard error of the mean, 95% CI in parenthesis
Documented CC50 across a set of compounds

smi	CC50 / nM
CCCCCCCCCC/C=C\CC/C=C\CC/C=C\CCCCCCCCCCC1=C[C@H](C)OC1=O	690
CCCCCCCCCCCC/C=C\CC/C=C\CC/C=C\CCCCCCCCC1=C[C@H](C)OC1=O	790

----------
Documented CC50 across a set of molecules
Assay: Cytotoxicity assay (7-AAD viability, flow cytometry)
Assay type: cell-based, human
Conditions: human; Hek293, conditionally normal line; ± standard error of the mean, 95% CI in parenthesis
assay readout: CC50 (nM)

molecule	units symbol	value
CCCCCCCCCCCC/C=C\CC/C=C\CC/C=C\CCCCCCCCC1=C[C@H](C)OC1=O [compound 2, chatenaytrienin-2]	nM	630
CCCCCCCCCC/C=C\CC/C=C\CC/C=C\CCCCCCCCCCC1=C[C@H](C)OC1=O [compound 1, chatenaytrienin-1]	nM	530
